# System: Wolbachia pipientis
# method_description: Anti-Wolbachia Cell-Based Screen
# Type: functional
# Design: scale not given: in the data most compounds retested in dose-response had high values
# assay_conditions: 5 µM
Hit rate of the full screen: of about 48,000 compounds, about 13,000 (27%) showed an effect of 50% or more. This is one part of the list.
measure_name: Percent Effect (%)

- Cc1nc(C2CCCN(S(C)(=O)=O)C2)sc1Br (stereo unspecified): 114.6
- CC(C)C(C(=O)N1CCN(Cc2ccncc2)CC1)n1cncn1 (stereo unspecified): -9.917
- CCN1CCC(NN2CCN(C)CC2)CC1: 4.072
- O=C1Cc2cc(NC(=O)N3CCCN(Cc4cccs4)CC3)ccc2N1: -14
- CC(C)N1CCOC(CC(=O)N2CCCN(Cc3ccncc3)CC2)C1 (stereo unspecified): 108.1
- CO[C@H]1CN(C(C)C)C[C@@H]1NC(=O)c1cc(-c2ccccc2O)n[nH]1: 3.341

###

Percent Effect reference
# Test system: Wolbachia pipientis
# method_description: Anti-Wolbachia Cell-Based Screen
# Format: functional
# Design: scale not given: in the data most compounds retested in dose-response had high values
# assay_conditions: 5 µM
About 13,000 (27%) of roughly 48,000 compounds showed an effect of 50% or more. The list shows a part of the results.
measure_name: Percent Effect (%)

* Cn1cc(C(=O)CC2CCCN2C(=O)c2ccn3ccnc3c2)cn1 (configuration not stated) | 8.483
* CCc1cnc(NCC(CC)N2CCOCC2)nc1 (configuration not stated) | 14.29
* Cc1nn(C)c(Cl)c1C1CCCN1C(=O)c1ccncc1 (configuration not stated) | 76.23
* Cn1cc(C(=O)CC2CCCN2C(=O)c2ccc(Cl)cn2)cn1 (configuration not stated) | -8.745
* Cc1cscc1C(=O)N1CCCC1CC(=O)c1cnn(C)c1 (configuration not stated) | 127.4
* Cn1cc(C(=O)CC2CCCN2C(=O)c2cccc3ncccc23)cn1 (configuration not stated) | 103.8
* CC(Nc1nc2c(cnn2C)c(=O)[nH]1)c1ccc2c(c1)CCCC2 (configuration not stated) | 4.227
* Cn1cc(C(=O)CC2CCCN2C(=O)c2cncc3ccccc23)cn1 (configuration not stated) | 0.2394
* CN1CCC(N2CCN(C(C(=O)O)c3cccc4c3OCC4)CC2)CC1 (configuration not stated) | -2.868
* CC1CCCCN1C1CN(C(=O)c2sccc2S(N)(=O)=O)C1 (configuration not stated) | 5.602
* COCCNC(=O)Nc1cccc(COCCOC(C)C)c1 | -33.02
* CCc1cc(C)c(C(=O)N2CCCC2CC(=O)c2cnn(C)c2)o1 (configuration not stated) | -2.154

###

# System: Wolbachia pipientis
# method_description: Anti-Wolbachia Cell-Based Screen
# Format: functional
# Design: scale not given: in the data most compounds retested in dose-response had high values
# assay_conditions: 5 µM
In all, about 48,000 compounds went through this assay and about 13,000 (27%) showed an effect of 50% or more. The list shows a part of the results.
Items are presented alongside their recorded Percent Effect.
measure_name: Percent Effect (%)

* CC(=O)c1ccccc1NC(=O)CCN1CCSCC1 | -1.71
* Cc1c(C(=O)NCC2CCN(Cc3c[nH]cn3)C2)[nH]c2ccccc12 (stereo not drawn) | 1.148
* O=C(NC1CCCN(CCc2ccccc2)C1)c1ccccn1 (stereo not drawn) | 90.98
* CCC1CN(C(=O)c2cncc(C)c2)CCC(=O)N1Cc1ccccc1 (stereo not drawn) | -10.11
* F[C@@H]1CN(Cc2cccnc2)C[C@@H]1OCc1nc2ccccc2[nH]1 | 10.94
* O[C@@H]1CN(Cc2ccncc2)C[C@H]1Oc1ccccc1 | 125.9
* Cc1cncc(CN2C[C@@H](O)[C@H](Oc3ccccc3)C2)c1 | 132.9
* CNC(=O)[C@@H](c1ccccc1OC)N1CCC[C@H]1C(=O)N1CCC1.Cl | -2.79
* Cn1cc(N2CC3(CCN(S(C)(=O)=O)C3)CC2=O)cn1 (stereo not drawn) | -6.805
* CCOc1ccc(NC(=O)c2[nH]c(C)cc2C)cc1CO | -6.246
* Cc1ccc2[nH]nc(C(=O)NCC3CCN(Cc4c[nH]cn4)C3)c2c1 (stereo not drawn) | -10.2
* CS(=O)(=O)CCNC(=O)N(Cc1ccoc1)C1CCCCC1 | -12.04
* CCc1nnc(CN2CCC(C3CCCCCN3C(C)=O)CC2)o1.Cl (stereo not drawn) | 2.52
* Cc1cnccc1CN1C[C@@H](O)[C@H](Oc2ccccc2)C1 | -5.554
* O=C(NC1CC(=O)N(C2Cc3ccccc3C2)C1)c1cnccn1 (stereo not drawn) | -14.57
* CCn1cc(CN2CCC(N3CCC(O)CC3)CC2)cc1C#N | 0
* Cc1nnc(N(CCC#N)CCC#N)s1 | 120.1
* CC(C)O[C@H]1CN(Cc2cnc3c(-c4ccccc4)cnn3c2)C[C@@H]1O | 3.276
* O=C1NC(c2ccccc2)=N[C@@]12CC[C@@H]1CN(Cc3cccnc3)C[C@@H]12 | 0.6919
* Cc1nc(C)n(CC2CCCN(Cc3ccccc3C#N)C2)n1 (stereo not drawn) | 99.33
* CCc1ccc(NC(=O)N2Cc3c(CN(C)C)nn(C)c3C2)cc1.O=C(O)C(F)(F)F | -20.31
* COCCNc1ccc(CC2CCCN(C3CCOCC3)C2)nn1 (stereo not drawn) | 121.9
* CN(C)Cc1nn(C)c2c1CN(C(=O)c1ccc[nH]1)C2.O=C(O)C(F)(F)F | -9.086

###

# System: Wolbachia pipientis
# method_description: Anti-Wolbachia Cell-Based Screen
# Type: functional
# Parameters: scale not given: in the data most compounds retested in dose-response had high values
# assay_conditions: 5 µM
Out of some 48,000 compounds screened, about 13,000 (27%) showed an effect of 50% or more. This is one part of the list.
measure_name: Percent Effect (%)

• Cc1[nH]nc(CCC(=O)N2C[C@H]3CC[C@@H]2CN(C(=O)N(C)C)C3)c1C = -18.31
• CCCC(CNc1cc(C(C)C)nc2ccnn12)N(C)C (stereo not given) = -7.916
• CCN(C)C(=O)[C@H]1C[C@@](CC(C)C)(C(=O)OC)N(C)[C@H]1c1cccnc1 = 5.067
• Cn1cc(CN2CCCC3(CCN(C(=O)c4cnccn4)C3)C2)cn1.O=C(O)C(F)(F)F.O=C(O)C(F)(F)F (stereo not given) = -36.61
• Cn1cc(CN2CCC3(CCCN(C(=O)c4cnccn4)C3)C2)cn1 (stereo not given) = 7.413
• Cc1n[nH]c(C)c1CCN(C)c1ccc(-c2nc(C3CC3)no2)cn1 = 5.085
• Cn1cc(CN2CCC3(CC2)CN(C(=O)c2cnccn2)CCO3)cn1 = 101.7
• COc1ccc(-c2n[nH]cc2CN(C)CCc2scnc2C)c(F)c1 = -15.83
• Cc1csc(C2CCCCN2C(=O)CCn2cncn2)n1 (stereo not given) = 8.818
• CC(C)c1nc(C2CCCN(C(=O)CCCn3cncn3)C2)no1 (stereo not given) = 2.854

###

# System: Wolbachia pipientis
# method_description: Anti-Wolbachia Cell-Based Screen
# Format: functional
# Set-up: scale not given: in the data most compounds retested in dose-response had high values
# assay_conditions: 5 µM
The campaign covered roughly 48,000 compounds. About 13,000 (27%) showed an effect of 50% or more. The list shows a part of the results.
measure_name: Percent Effect (%)

• O=C(N1CCCO1)[C@@]12CCO[C@@H]1CCN(Cc1ccsc1)C2 = 127
• CC(C)n1cnc(-c2nc(C(=O)N3CCCC3)c3ccccn23)c1 = -0.8191
• Cn1cc(CCCNC(=O)NC2CCN(CC(F)(F)F)C2=O)cn1 (centres undefined) = -5.145
• O=S(=O)(NCC1(O)CCOc2ccccc21)c1ccc(Cl)s1 (centres undefined) = -0.7436
• COCC(=O)N1CCC2(CC1)NC(=O)c1ccccc12.Cl = -6.733
• CCn1nc(C)c(S(=O)(=O)Nc2ccccc2C(=O)OC)c1C = -6.756
• CC(O)CN1CCC(CN(C)Cc2ccc(C#N)cc2F)CC1 (centres undefined) = -14.31
• Cc1nc2ccc(S(=O)(=O)Nc3c(C)nn(CC(=O)O)c3C)cc2s1 = 96.05
• Cc1ccc(S(=O)(=O)Nc2c(C)nn(C)c2C)cc1C = -30.32
• Cc1cnn(CCNCc2ccc(F)cc2Cl)c1 = -9.942
• O=C(CCN1CCNCC1)N1CCC2(CC1)c1ccccc1CC2O (centres undefined) = 4.718
• CS(=O)(=O)c1ccc(-c2nc(C(=O)N3CCCC3)n3ccccc23)cc1 = 91.51
• Cl.O=C(C1CC1)N1CCc2ccccc2C12CCNCC2 = 85.13
• CCOC(=O)N1CCc2ccccc2C12CCNCC2.Cl = 93.5
• CCN(C)S(=O)(=O)NCC(O)c1cc2ccccc2s1 (centres undefined) = -28.91
• Cc1cccc(C(=O)NCCNS(=O)(=O)c2cccs2)c1C = -10.16
• COCC(=O)N1CCc2[nH]c(=O)ccc2C1 = -6.404
• COc1ccccc1C1CCN(c2ccc3cc[nH]c3n2)CC1 = 26.71
• CC(C)CCN(C)C(=O)c1nc(S(C)(=O)=O)n2ccccc12 = 1.111
• CC(C)Oc1ccc(CNC(=O)c2cc(C(N)=O)cs2)cc1F = -0.429
• CN(C)C(=O)c1nc(-c2ccc(S(C)(=O)=O)cc2)c2ccccn12 = 94.54
• CN(C)CCN(C)C1CCCN(C(=O)c2ccc(Cn3ccnc3)o2)C1 (centres undefined) = -5.736
• Cc1nn(CC(=O)O)c(C)c1NS(=O)(=O)c1cc2ccccc2s1 = 90.4
• O=C(C1CC1)N1CCC2(CC1)CNCc1ccccc12 = 1.154
